Taken from the supplement of paper PMC12042874.

MEASUREMENT NOTES: amyloid nucleation score (Sup35N fusion, yeast selection) (log enrichment); library NNK1; higher = more nucleation; inactive = no reads after selection;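 note: zero at mode of non-aggregating sequences after 7 days selection at 30°C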
QUANTITY KIND: amyloid nucleation score
Give the value as a plain number.

AFMSRVGLHW | 0.691

amyloid nucleation score measured on `FWTAPKLARDMSVLVTVFFY` = -1.4

amyloid nucleation score measured on `YAQPIFKLCRTG` = -0.921

amyloid nucleation score measured on `AFNSFIGFHCPSDVWCMKRN` = 5.25

amyloid nucleation score measured on `VLLVRSNKSKLDRHRDWSGK` = 0.466

amyloid nucleation score measured on `MAFMHLIISYCRYIF` = 0.341

amyloid nucleation score measured on `KLIPCLLVITINLGHKATLS` = 0.482

amyloid nucleation score measured on `SSGDVPGFSPYGKWDFWWTC` = -0.151

amyloid nucleation score measured on `NTKTNGTSIGNSTVVLHLIA` = 6.41

amyloid nucleation score measured on `FSTVILSAYSAFSFGIYLLS` = 1.46

amyloid nucleation score measured on `MRPVSLYGFIFCCAFQGLWF` = 4.99

amyloid nucleation score measured on `QPNSWELWPCSDLRIRLVEE` = 0.104

amyloid nucleation score measured on `PNMGREYKIGTGHYYEQFFH` = -0.082

amyloid nucleation score measured on `WAYWRYVNENRSVCRRKVGF` = -0.053

amyloid nucleation score measured on `LQFGWFMIYLIKFSPNLRGN` = -1.18

amyloid nucleation score measured on `WFRVGVPHN` = 0.472

amyloid nucleation score measured on `IKCHYFDVCLNVWSLCYLAC` = 1.24

amyloid nucleation score measured on `GRFRLVMVFCAGNGNAGGER` = 1.52

amyloid nucleation score measured on `IESEGSWRIHWK` = 0.638

----------
# reported amyloid nucleation score; entries follow
MEASUREMENT NOTES: amyloid nucleation score (Sup35N fusion, yeast selection) (log enrichment); library NNK2; higher = more nucleation; inactive = no reads after selection
Give the value as a plain number.

RCYGVRTHGNLKQIMTKMTE | 0.602

amyloid nucleation score measured on `RSDRVIGDMTGAECITLGRL` = -0.82

amyloid nucleation score measured on `SSLHACA` = 2.21

amyloid nucleation score measured on `HTHTWT` = 1.31

amyloid nucleation score measured on `SVKYFLDSVDVWIDIISAFF` = 0.256

----------
MEASUREMENT NOTES: amyloid nucleation score (Sup35N fusion, yeast selection) (log enrichment); library NNK1; higher = more nucleation; inactive = no reads after selection
QUANTITY KIND: amyloid nucleation score
Give the value as a plain number.

Use these answered entries as a reference point.
YLWLVWEDV | 0.721
LAWVGVLW | -0.219

amyloid nucleation score measured on `CVNFFGCHCVHN` = 7.74

amyloid nucleation score measured on `YNKGIRRSDQGLKWTFLWPE` = -0.712

amyloid nucleation score measured on `YMGPVV` = -0.313

amyloid nucleation score measured on `ACFEFKLGTFRLGAALNYPG` = 1.03

amyloid nucleation score measured on `QATYCGLIIPSGLIYPDYTV` = -0.442

amyloid nucleation score measured on `RIWDCRYCKG` = -0.184

amyloid nucleation score measured on `ERDCPYRTMGLRCVNYRFRG` = 3.64

amyloid nucleation score measured on `LFSNPFRQAWH` = -0.445

amyloid nucleation score measured on `MRGERVYSLRNNSHQ` = -0.078

amyloid nucleation score measured on `FRHPMTDDDTPWKAARFVE` = -1.6

amyloid nucleation score measured on `IRSQKRYLCSGSLLCKVSRR` = 1.38

amyloid nucleation score measured on `ACNCHMWV` = 1.31

----------
MEASUREMENT NOTES: amyloid nucleation score (Sup35N fusion, yeast selection) (log enrichment); library NNK2; higher = more nucleation; inactive = no reads after selection
# reported amyloid nucleation score; entries follow
Give the value as a plain number.

RLSGRVTCSVNVGHSLKGTV | 4.53

amyloid nucleation score measured on `TNGCALRSLNWLIVS` = -0.44

amyloid nucleation score measured on `VLKCGHKYLVIDSWKL` = 1.78

amyloid nucleation score measured on `TDCIWFHYLVTLWFLIRRCP` = 0.741

----------
MEASUREMENT NOTES: amyloid nucleation score (Sup35N fusion, yeast selection) (log enrichment); library NNK3; higher = more nucleation; inactive = no reads after selection
QUANTITY KIND: amyloid nucleation score

VAEEHSVLSCQDADFCASSL | inactive
IATIFGVHFRQNDDWIVALY | inactive
AGIVRWVVFISSYWGPLLLL | inactive
FCIECYL | inactive

amyloid nucleation score measured on `AVSLCSDLYFVFGKWFGCEL` = 1.11

amyloid nucleation score measured on `YSTNVSYY` = inactive

amyloid nucleation score measured on `FCCINKLDGLGVWETYCSYS` = inactive

amyloid nucleation score measured on `KMFWLVTHRLN` = inactive

amyloid nucleation score measured on `VLGDSNFF` = inactive

amyloid nucleation score measured on `ICTVNMTNQSEC` = inactive

amyloid nucleation score measured on `QMRYLFACFYT` = inactive

amyloid nucleation score measured on `FEHPHGGVNS` = inactive

----------
MEASUREMENT NOTES: amyloid nucleation score (Sup35N fusion, yeast selection) (log enrichment); library NNK1; higher = more nucleation; inactive = no reads after selection
amyloid nucleation score below 0.3 gives Not satisfied; amyloid nucleation score at or above it gives Satisfied.

Worked examples, 5 substances total:
VYCSLPRFRHLTSSILVTII | Not satisfied
VLCSMDSVGSSGASGIFTYM | Not satisfied
MDNGTESPLE | Satisfied
NLSGSFPN | Not satisfied
LFLCGGDCYGKFLLCPCLVS | Not satisfied

Reported amyloid nucleation score at or above 0.3? `RSHGNGSGSRTVAF` Not satisfied

Reported amyloid nucleation score at or above 0.3? `NGMLFCT` Not satisfied

Reported amyloid nucleation score at or above 0.3? `VLCNFWMD` Satisfied

Reported amyloid nucleation score at or above 0.3? `KWVWDLMMVDSGLRLSSHVL` Not satisfied

Reported amyloid nucleation score at or above 0.3? `FMYKMGSYGMDM` Not satisfied

Reported amyloid nucleation score at or above 0.3? `MRENIWPITCSNL` Satisfied

----------
MEASUREMENT NOTES: amyloid nucleation score (Sup35N fusion, yeast selection) (log enrichment); library NNK2; higher = more nucleation; inactive = no reads after selection
QUANTITY KIND: amyloid nucleation score

FYSFLFFHPIGMFARVYKCF | inactive
LSWRFFLSCWN | inactive
DFFMTPGTLGIGTLSNISFY | inactive

----------
MEASUREMENT NOTES: amyloid nucleation score (Sup35N fusion, yeast selection) (log enrichment); library NNK1; higher = more nucleation; inactive = no reads after selection
QUANTITY KIND: amyloid nucleation score

Use these answered entries as a reference point.
VRNNNFAYVNSVTDGVRYAR | inactive
LVPVIKEQFCCHVWVMV | inactive
SDLCSLLASQRFLRRSGYKL | inactive
GETRGVPPNFFTPIIQLSSA | inactive
VKLFSVNKNNMTVPSTALCS | 5.97

amyloid nucleation score measured on `RYFSRAVACDHNES` = -0.547

amyloid nucleation score measured on `FIESVL` = 1.14

amyloid nucleation score measured on `GTMKWALYSDYLSSTFTIYH` = 0.137

----------
MEASUREMENT NOTES: amyloid nucleation score (Sup35N fusion, yeast selection) (log enrichment); library NNK3; higher = more nucleation; inactive = no reads after selection
QUANTITY KIND: amyloid nucleation score

Use these answered entries as a reference point.
FSSCDHRFWTFLIKFMLLAL | inactive
TFRIVRFCLKILTCRTC | inactive
CSAWGLRKF | 0.673
LVIVRWNAVYTYIGFDF | inactive

amyloid nucleation score measured on `QCSMDRNT` = inactive

amyloid nucleation score measured on `NISVLIRCLWNFSEGKAFLA` = inactive

amyloid nucleation score measured on `IISMFYSSKA` = inactive

amyloid nucleation score measured on `KNQNMMMSSQFSMYCWFRLT` = inactive

amyloid nucleation score measured on `FLVNPVCSMVSSYCSFPSPK` = 2.52

amyloid nucleation score measured on `FGRQVSDGVASFMSNTSLYR` = inactive

amyloid nucleation score measured on `SHVWPLLMYHGGIVWSKS` = inactive

amyloid nucleation score measured on `YDTHWTVCLLSTCLTL` = inactive

amyloid nucleation score measured on `SWTFRTLSKCVYYSFCREMD` = inactive

amyloid nucleation score measured on `TFWKKGMPGIIYRYFYLF` = inactive

amyloid nucleation score measured on `VFLSWCAGSKGFSGVCRI` = 0.6

amyloid nucleation score measured on `MFLSWCKKVNLRMIILSSDT` = inactive
